- TESTED ON: BRD4-BD1 (Homo sapiens (Human))
- ASSAY SUMMARY: AlphaLisa bromodomain binding assay, BRD4-BD1
- SETUP CONDITIONS: Table 6; read-out: BRD4(1) IC50
- Method: An AlphaLisa assay was used to observe bromodomain binding and measure IC50s for the compounds disclosed herein. An AlphaLisa assay is a bead-based assay used to detect interactions between bromodomains and polyacetylated histone peptides. […] Equipment Required • 1. […] Microplate reader (Pherastar) […] The percent inhibition is calculated in the excel analysis template and the IC50 values are subsequently determined using a sigmoidal dose-response curve (variable slope) using GraphPad Prism® 5 software.

{"columns": ["COMPOUND", "UNIT STRING", "IC50"],
 "data": [
  ["CN1CCC(NC(=O)c2ccc(Nc3ncc4ccn(-c5ccc(F)c(NS(=O)(=O)C(C)(C)C)c5)c4n3)cc2F)CC1 [drawing 335]", "nM", 94],
  ["CN1CCN(c2ccc(Nc3ncc4ccn(-c5cccc(NS(=O)(=O)C(C)(C)C)c5)c4n3)cc2)CC1 [drawing 275]", "nM", 242],
  ["Cc1cnc(Nc2ccc(N3CCN(C)CC3)cc2)nc1Nc1cccc(NS(=O)(=O)C(C)(C)C)c1 [drawing 292]", "nM", 280],
  ["Cc1cnc(Nc2ccc(N3CCN(C)CC3)cc2)nc1Nc1cccc(NS(=O)(=O)C(C)(C)C)c1 [drawing 321]", "nM", 166],
  ["Cc1ccc(Nc2nc(NC3CCN(C)CC3)nc3sccc23)cc1NS(=O)(=O)C(C)(C)C", "nM", 206],
  ["Cc1cnc(Nc2ccc(N3CCN(C)CC3)cc2)nc1Nc1cccc(NS(=O)(=O)C(C)(C)C)c1 [drawing 396]", "nM", 155],
  ["CN(C)C1CCN(c2ccc(Nc3ncc4ccn(-c5ccc(F)c(NS(=O)(=O)C6(C)CC6)c5)c4n3)cc2F)CC1", "nM", 248]
]}

----------
- TESTED ON: JAK2 (Homo sapiens (Human), UniProt O60674)
- Sequence (O60674 whole entry): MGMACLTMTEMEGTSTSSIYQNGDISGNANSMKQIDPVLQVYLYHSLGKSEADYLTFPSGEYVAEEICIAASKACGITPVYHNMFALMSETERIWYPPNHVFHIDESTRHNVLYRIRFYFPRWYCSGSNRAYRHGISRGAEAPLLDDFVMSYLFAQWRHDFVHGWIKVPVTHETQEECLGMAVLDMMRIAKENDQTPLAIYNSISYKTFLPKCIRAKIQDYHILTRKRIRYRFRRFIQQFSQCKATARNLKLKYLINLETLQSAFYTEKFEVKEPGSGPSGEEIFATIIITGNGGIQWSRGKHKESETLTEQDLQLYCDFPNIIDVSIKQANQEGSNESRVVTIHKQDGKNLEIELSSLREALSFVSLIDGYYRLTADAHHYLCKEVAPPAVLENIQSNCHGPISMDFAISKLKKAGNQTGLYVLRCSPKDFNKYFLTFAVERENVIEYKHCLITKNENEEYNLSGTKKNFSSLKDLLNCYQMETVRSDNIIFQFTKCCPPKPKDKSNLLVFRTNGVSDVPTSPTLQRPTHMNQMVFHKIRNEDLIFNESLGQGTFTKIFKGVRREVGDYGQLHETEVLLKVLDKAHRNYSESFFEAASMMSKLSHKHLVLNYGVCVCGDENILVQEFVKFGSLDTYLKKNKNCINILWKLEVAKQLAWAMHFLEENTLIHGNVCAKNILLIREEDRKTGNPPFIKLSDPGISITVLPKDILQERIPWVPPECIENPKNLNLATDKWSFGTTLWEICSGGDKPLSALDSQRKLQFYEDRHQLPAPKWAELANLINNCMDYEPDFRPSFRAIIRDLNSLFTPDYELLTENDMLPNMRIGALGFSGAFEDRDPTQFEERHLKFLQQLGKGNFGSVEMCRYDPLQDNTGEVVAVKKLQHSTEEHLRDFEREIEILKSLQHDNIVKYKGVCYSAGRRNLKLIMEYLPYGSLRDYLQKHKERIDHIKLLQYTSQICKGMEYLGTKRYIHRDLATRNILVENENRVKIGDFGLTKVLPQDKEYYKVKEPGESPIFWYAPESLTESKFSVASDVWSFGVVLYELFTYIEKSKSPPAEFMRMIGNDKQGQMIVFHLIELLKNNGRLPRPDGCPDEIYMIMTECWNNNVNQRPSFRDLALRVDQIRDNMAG
- ASSAY SUMMARY: HTRF kinase assay, JAK2
- Assay type: biochemical
- SETUP CONDITIONS: Table 6
- From the text: A kinase assay with HTRF was used to observe JAK activity and calculate the IC50s of compounds disclosed herein. HTRF is an enzymatic assay used to determine the amount of phosphorylated peptide. FRET (Fluorescence Resonance Energy Transfer) is based on the transfer of energy between two fluorophores—a donor and an acceptor—when in close proximity. […] Equipment Required • 1. […] Microplate reader (Pherastar)] […]
This listing pairs compounds with measured IC50.

{"columns": ["COMPOUND", "UNIT STRING", "IC50"],
 "data": [
  ["CNC1CCN(C(=O)c2ccc(Nc3ncc4scc(-c5cccc(NS(=O)(=O)C(C)(C)C)c5)c4n3)cc2F)CC1", "µM", 0.012],
  ["CC(C)(C)S(=O)(=O)Nc1cccc(-n2ccc3cnc(Nc4ccc(NCCN)cc4)nc32)c1", "µM", 0.02],
  ["CCC1(S(=O)(=O)Nc2cccc(-n3ccc4cnc(Nc5ccc(N6CCC(N(C)C)CC6)cc5)nc43)c2)CC1", "µM", 0.0047],
  ["CC(C)(C)S(=O)(=O)Nc1cccc(-n2ccc3cnc(Nc4ccc(N5CCNCC5)cc4)nc32)c1 [drawing 283]", "µM", 0.012],
  ["Cc1cnc(Nc2ccc(N3CCN(C)CC3)cc2)nc1Nc1cccc(NS(=O)(=O)C(C)(C)C)c1 [drawing 321]", "µM", 0.013],
  ["CN1CCC(Nc2ncc3ccn(-c4cccc(NS(=O)(=O)C(C)(C)C)c4)c3n2)CC1", "µM", 1000],
  ["O=S(=O)(Nc1cccc(-n2ccc3cnc(Nc4ccc(C5CCNCC5)cc4)nc32)c1)C1CC1", "µM", 0.071],
  ["COc1cc(N2CCN(C)CC2)ccc1Nc1ncc2ccn(-c3cccc(NS(=O)(=O)C(C)(C)C)c3)c2n1", "µM", 2.8],
  ["CN1CCC(Nc2nc(Nc3cccc(N(C)S(=O)(=O)C(C)(C)C)c3)c3ccsc3n2)CC1", "µM", 10],
  ["CC(C)(C)S(=O)(=O)Nc1cccc(Nc2nc(NC3CCNCC3)nc3sccc23)c1 [drawing 270]", "µM", 10],
  ["CN(C)CC1CCN(c2ccc(Nc3ncc4ccn(-c5ccc(F)c(NS(=O)(=O)C(C)(C)C)c5)c4n3)cc2F)CC1", "µM", 0.083],
  ["Cc1cc(Nc2ncc3ccn(-c4cccc(NS(=O)(=O)C(C)(C)C)c4)c3n2)ccc1N1CCN(C)CC1", "µM", 0.011],
  ["CNC1CCN(c2ccc(Nc3ncc4ccn(-c5ccc(F)c(NS(=O)(=O)C(C)(C)C)c5)c4n3)cc2F)CC1 [drawing 457]", "µM", 0.052],
  ["CNC1CCN(c2ccc(Nc3ncc4ccn(-c5ccc(F)c(NS(=O)(=O)C(C)(C)C)c5)c4n3)cc2F)CC1 [drawing 456]", "µM", 0.039],
  ["CC(=O)N1CCN(c2ccc(Nc3ncc4ccn(-c5cccc(NS(=O)(=O)C6CC6)c5)c4n3)cc2)CC1", "µM", 24.9],
  ["CN1CCC(Nc2nc(Nc3ccc(Cl)c(NS(=O)(=O)C(C)(C)C)c3)c3sccc3n2)CC1", "µM", 10],
  ["CC(C)(C)S(=O)(=O)Nc1cc(-c2csc3cnc(Nc4ccc(N5CCNCC5)c(F)c4)nc23)ccc1F", "µM", 0.051],
  ["Cc1ccc(-n2ccc3cnc(Nc4ccc(N5CCN(C)CC5)cc4)nc32)cc1NS(=O)(=O)C1CC1", "µM", 0.0197],
  ["COc1cc(Nc2ncc3scc(-c4cccc(NS(=O)(=O)C(C)(C)C)c4)c3n2)ccc1N1CCC(N(C)C)CC1", "µM", 0.001],
  ["CC(C)(C)S(=O)(=O)Nc1cc(-n2ccc3cnc(Nc4ccc(N5CCN(S(C)(=O)=O)CC5)c(F)c4)nc32)ccc1F", "µM", 0.4],
  ["CN(C)C1CCN(c2ccc(Nc3ncc4ccn(-c5ccc(F)c(NS(=O)(=O)C(C)(C)C)c5)c4n3)cc2F)CC1 [drawing 397]", "µM", 0.027],
  ["Cc1sc2c(c1C)C(c1ccc(Cl)cc1)=N[C@@H](CC(=O)OC(C)(C)C)c1nnc(C)n1-2", "µM", 10]
]}

----------
Reported log10 of IC50 values are given for each entry in this list.
- TESTED ON: JAK2 (Homo sapiens (Human), UniProt O60674)
- ASSAY SUMMARY: HTRF kinase assay, JAK2
- Type: biochemical
- SETUP CONDITIONS: Table 6
- Description: A kinase assay with HTRF was used to observe JAK activity and calculate the IC50s of compounds disclosed herein. HTRF is an enzymatic assay used to determine the amount of phosphorylated peptide. FRET (Fluorescence Resonance Energy Transfer) is based on the transfer of energy between two fluorophores—a donor and an acceptor—when in close proximity. […] Equipment Required • 1. […] Microplate reader (Pherastar)] […]
PROPERTY MEASURED: log10 of IC50 (log10 of the value in nM)

{"columns": ["COMPOUND", "RECORDED RESULT"],
 "data": [
  ["CN(C)C1CCN(C(=O)c2ccc(Nc3ncc4ccn(-c5cccc(NS(=O)(=O)C(C)(C)C)c5)c4n3)cc2F)CC1", 1.30],
  ["CN(C)C1CCN(c2ccc(Nc3ncc4scc(-c5cccc(NS(=O)(=O)C(C)(C)C)c5)c4n3)cc2)CC1", 0.48],
  ["CCC1(S(=O)(=O)Nc2cc(-n3ccc4cnc(Nc5ccc(N6CCN(C)CC6)c(F)c5)nc43)ccc2F)CC1", 2.01],
  ["CN1CCN(c2ccc(Nc3ncc4ccn(-c5ccc(F)c(NS(=O)(=O)C6CC6)c5)c4n3)cc2)CC1", 1.18],
  ["CC(C)(C)S(=O)(=O)Nc1cc(-n2ccc3cnc(Nc4cc(F)c5c(c4)CC4CNCCN54)nc32)ccc1F (centres unmarked) [drawing 465]", 1.79],
  ["CN1CCN(c2ccc(Nc3ncc4ccn(-c5ccccc5NS(=O)(=O)C(C)(C)C)c4n3)cc2)CC1", 3.38],
  ["CNC1CCN(c2ccc(Nc3ncc4scc(-c5ccc(F)c(NS(=O)(=O)C(C)(C)C)c5)c4n3)cc2F)CC1 [drawing 459]", 1.32],
  ["CN(C)C1CCN(c2ccc(Nc3ncc4ccn(-c5ccc(F)c(NS(=O)(=O)C(C)(C)C)c5)c4n3)cc2)CC1", 1.91],
  ["Cc1cnc(Nc2ccc(N3CCN(C)CC3)cc2)nc1Nc1cccc(NS(=O)(=O)C(C)(C)C)c1 [drawing 405]", 1.15],
  ["CN1CCN(c2ccc(Nc3ncc4ccn(-c5cccc(NS(=O)(=O)C(C)(C)C)c5)c4n3)cc2C(N)=O)CC1", 1.86],
  ["CC(C)(C)S(=O)(=O)Nc1cccc(Nc2nc(NC3CC4CC3CN4)nc3sccc23)c1 (centres unmarked)", 3.62]
]}
